Tested on: keratinocytes (HaCaT)
Test: Safety, LDH test in keratinocytes
Assay type: cell-based
Conditions: 100 μM, 48 hours, vs Triton X-100
Source text: In order to test the safety of the compounds, both normal human cells were used: keratinocytes (HaCaT), fibroblasts (BJ), primary melanocytes that occur in the skin, as well as human cancer cells: the hepatocarcinoma line HepG2 and the neuroblastoma line SH-SY5Y, which are considered a model for the assessment of hepatocytotoxicity and neurocytotoxicity. […] The absorbance at 570 nm, which corresponds to the absorption maximum for the product, is directly proportional to cell viability. […]
MEASURED_ATTRIBUTE: LDH, Keratinocytes (HaCaT)

Solved cases below.
INSERT INTO assay_data (compound, measured_attribute, value) VALUES
  ('O=C(/C=C/c1ccccc1)NCCCCCO [Compound A-133]', 'LDH, Keratinocytes (HaCaT)', '3.23 percentage of positive control'),
  ('Cc1ccc(/C=C/C(=O)NCCCCCO)cc1 [H-415/21]', 'LDH, Keratinocytes (HaCaT)', '2.95 percentage of positive control'),
  ('O=C(/C=C/c1ccc(Cl)cc1)NCCCO [H-330/21]', 'LDH, Keratinocytes (HaCaT)', '3.66 percentage of positive control'),
  ('O=C(/C=C/c1ccc(Cl)cc1)NCCO [H-427/21]', 'LDH, Keratinocytes (HaCaT)', '2.76 percentage of positive control');

Attention now turns to another entry.
For the compound O=C(/C=C/c1ccc(Cl)cc1)NCCCCCO [Compound A-111] , what LDH, Keratinocytes (HaCaT) is on record?
4.69 percentage of positive control
